From: patent US8778966B2

I'd be grateful if you could share measured log10 of IC50 for these entries.
Assayed target: Human PARP-1 enzyme (Homo sapiens)
Construct: purchased Trevigen
Sequence (P09874 whole entry): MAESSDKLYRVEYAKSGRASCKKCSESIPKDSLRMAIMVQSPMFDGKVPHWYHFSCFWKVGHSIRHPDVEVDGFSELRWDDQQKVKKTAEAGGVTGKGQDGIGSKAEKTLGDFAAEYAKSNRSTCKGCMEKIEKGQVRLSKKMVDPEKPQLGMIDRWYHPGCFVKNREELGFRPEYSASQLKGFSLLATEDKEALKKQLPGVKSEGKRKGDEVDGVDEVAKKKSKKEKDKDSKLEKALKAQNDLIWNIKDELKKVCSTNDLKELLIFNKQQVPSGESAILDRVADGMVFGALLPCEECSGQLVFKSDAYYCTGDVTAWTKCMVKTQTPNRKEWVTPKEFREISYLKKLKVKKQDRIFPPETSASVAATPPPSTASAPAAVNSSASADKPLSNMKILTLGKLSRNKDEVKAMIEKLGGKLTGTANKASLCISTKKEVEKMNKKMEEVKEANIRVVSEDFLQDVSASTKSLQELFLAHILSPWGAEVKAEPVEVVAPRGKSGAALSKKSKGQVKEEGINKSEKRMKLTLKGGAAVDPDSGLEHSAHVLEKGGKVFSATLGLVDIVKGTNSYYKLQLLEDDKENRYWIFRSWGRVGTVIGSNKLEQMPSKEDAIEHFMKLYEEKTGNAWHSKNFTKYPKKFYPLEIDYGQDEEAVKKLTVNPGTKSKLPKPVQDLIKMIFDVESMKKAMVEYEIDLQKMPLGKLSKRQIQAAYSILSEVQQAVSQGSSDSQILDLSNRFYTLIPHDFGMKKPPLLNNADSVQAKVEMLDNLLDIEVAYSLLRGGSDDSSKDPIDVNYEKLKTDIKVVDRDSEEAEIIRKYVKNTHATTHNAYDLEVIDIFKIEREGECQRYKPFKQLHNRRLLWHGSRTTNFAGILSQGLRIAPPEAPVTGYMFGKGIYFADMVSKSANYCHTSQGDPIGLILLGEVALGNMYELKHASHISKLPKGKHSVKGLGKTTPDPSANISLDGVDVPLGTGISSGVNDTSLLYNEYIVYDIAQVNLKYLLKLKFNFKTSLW
Assay protocol: In vitro Scintillation Proximity Assay (SPA) for PARP-1 inhibitory activity
Assay type: biochemical
Condition details: read-out: in vitro SPA assay PARP-1 pIC50 (converted)
Please be aware that the numbers have been log10-transformed from IC50 in nM.

Example entries begin here.
- Cc1cc2ccc([C@@](C)(C#N)C3CCc4ccccc43)cc2[nH]c1=O (single isomer, unassigned): 2.00
- CCc1cc2cc(C)c(C(C)(C#N)Cc3cccc(C#N)n3)cc2[nH]c1=O (stereo not drawn): 2.00
- CCc1cc2ccc(C(C)(C#N)CCOc3ccc(Cl)cc3)cc2[nH]c1=O (stereo not drawn): 2.60
- CCc1cc2ccc(C(C)(C#N)Cc3nccc(OCCOC)n3)cc2[nH]c1=O (stereo not drawn): 2.10
- Cc1cc2ccc(C(C)(C#N)Cc3cccc(Oc4ncccn4)c3)cc2[nH]c1=O (stereo not drawn): 2.10
- Cc1cc2ccc(C(C)(C#N)Cc3cccc(Cl)c3)cc2[nH]c1=O (stereo not drawn): 3.30
- CCc1cc2ccc(C(C)(C#N)Cc3cc(Cl)cc4c3OCOC4)cc2[nH]c1=O (stereo not drawn) [Compound 92]: 2.40
- CC(=O)c1cc2ccc(C(C)(C#N)Cc3ccccc3)cc2[nH]c1=O (stereo not drawn): 3.90

Quick request: log10 of IC50 for each listed item, please.
1. CCc1cc2ccc(C(C)(C#N)Cc3nc(N(C)C)cc(N(C)C)n3)cc2[nH]c1=O (stereo not drawn)
2. CCc1cc2ccc(C(C)(C#N)Cc3cccc(F)c3)cc2[nH]c1=O (stereo not drawn)

1: 1.90; 2: 2.30

Quick batch: log10 of IC50 for everything below.
1. CCc1cc2ccc([C@@](C)(C#N)Cc3nc(OC)cc(OC)n3)cc2[nH]c1=O (single isomer, unassigned)
2. CCc1cc2ccc(C(C)(C#N)Cc3cccc(C)c3)cc2[nH]c1=O (stereo not drawn)
3. CCc1cc2ccc(C(C)(C#N)Cc3cc(OCCOC)nc(C)n3)cc2[nH]c1=O (stereo not drawn)
4. Cc1cc2ccc(C(C)(C#N)Cc3cccc(C=Cc4ccccc4)c3)cc2[nH]c1=O (stereo not drawn)

1.70
2.40
2.20
2.30

###

For each entry below, report its IC50 value.
Test system: PC-3 cells
Assay protocol: Antiproliferative activity, Alamar Blue assay, PC-3 cells
Format: cell-based, human
Condition details: Homo sapiens, PC-3, PC3 cells, Alamar Blue; read-out: PC3 antiproliferative activity pIC50 (converted)
Answers are plain numbers, in µM.

Okay, here is my list. What is IC50 for each of these?
1. CCc1cc2ccc(C(C)(C#N)Cc3ncc(C)c(OC)c3C)cc2[nH]c1=O (stereo not shown) [Compound 311]
2. CCc1cc2ccc(C(C)(C#N)Cc3cc(OC)cc(OC)c3)cc2[nH]c1=O (stereo not shown) [Compound 332]
3. CCc1cc2ccc(C(C)(C#N)Cc3cccc(N(C)CCc4ccccc4)n3)cc2[nH]c1=O.Cl (stereo not shown) [Compound 220]
4. CCc1cc2ccc(C(C)(C#N)Cc3cccc(CCS(C)(=O)=O)c3)cc2[nH]c1=O (stereo not shown) [Compound 178]

1. 7.94
2. 0.251
3. 7.94
4. 10

###

Assayed target: TANK-2 enzyme (Homo sapiens)
Construct: made in house
Assay protocol: In vitro Scintillation Proximity Assay (SPA) for TANK-2 inhibitory activity
Assay type: biochemical
Condition details: read-out: in vitro SPA assay TANK-2 pIC50 (converted)
Assign labels as follows, please: T for IC50 below 100 nM; F for IC50 equal to or exceeding 100 nM.

Consider the worked cases shown below.
* CCc1cc2ccc(C(C)(C#N)Cc3ncc(C)c(OC)c3C)cc2[nH]c1=O (stereo not shown) | F
* Cc1cc2ccc(C(C)(C#N)C3CCc4c(Br)cccc43)cc2[nH]c1=O (stereo not shown) | F
* CCc1cc2ccc(C(C)(C#N)Cc3ccccc3)cc2[nH]c1=O (stereo not shown) | T
* CCc1cc2ccc(C(C)(C#N)Cc3cc(Cl)nc(OC)c3)cc2[nH]c1=O (stereo not shown) | F
* CCc1cc2ccc(C(C)(C#N)Cc3cccc(C#N)n3)cc2[nH]c1=O (single isomer, unassigned) [Compound 206] | T

Find out if reported IC50 for CCc1cc2ccc(C(C)(C#N)CCOc3ccccc3C#N)cc2[nH]c1=O (stereo not shown) is less than 100 nM T

Consider the compound CCC(=O)c1cccc(CC(C)(C#N)c2ccc3cc(C)c(=O)[nH]c3c2)c1 (stereo not shown) . Is its IC50 strictly less than 100 nM? F

Find out if reported IC50 for CCc1cc2ccc(C(C)(C#N)Cc3cc4ccccc4nn3)cc2[nH]c1=O (stereo not shown) is less than 100 nM F

Does CCc1cc2ccc(C(C)(C#N)Cc3cccc(C)n3)cc2[nH]c1=O (stereo not shown) have IC50 strictly under 100 nM? F

###

Assayed target: TANK-2 enzyme (Homo sapiens)
Construct: made in house
Sequence (Q9H2K2 1-1166): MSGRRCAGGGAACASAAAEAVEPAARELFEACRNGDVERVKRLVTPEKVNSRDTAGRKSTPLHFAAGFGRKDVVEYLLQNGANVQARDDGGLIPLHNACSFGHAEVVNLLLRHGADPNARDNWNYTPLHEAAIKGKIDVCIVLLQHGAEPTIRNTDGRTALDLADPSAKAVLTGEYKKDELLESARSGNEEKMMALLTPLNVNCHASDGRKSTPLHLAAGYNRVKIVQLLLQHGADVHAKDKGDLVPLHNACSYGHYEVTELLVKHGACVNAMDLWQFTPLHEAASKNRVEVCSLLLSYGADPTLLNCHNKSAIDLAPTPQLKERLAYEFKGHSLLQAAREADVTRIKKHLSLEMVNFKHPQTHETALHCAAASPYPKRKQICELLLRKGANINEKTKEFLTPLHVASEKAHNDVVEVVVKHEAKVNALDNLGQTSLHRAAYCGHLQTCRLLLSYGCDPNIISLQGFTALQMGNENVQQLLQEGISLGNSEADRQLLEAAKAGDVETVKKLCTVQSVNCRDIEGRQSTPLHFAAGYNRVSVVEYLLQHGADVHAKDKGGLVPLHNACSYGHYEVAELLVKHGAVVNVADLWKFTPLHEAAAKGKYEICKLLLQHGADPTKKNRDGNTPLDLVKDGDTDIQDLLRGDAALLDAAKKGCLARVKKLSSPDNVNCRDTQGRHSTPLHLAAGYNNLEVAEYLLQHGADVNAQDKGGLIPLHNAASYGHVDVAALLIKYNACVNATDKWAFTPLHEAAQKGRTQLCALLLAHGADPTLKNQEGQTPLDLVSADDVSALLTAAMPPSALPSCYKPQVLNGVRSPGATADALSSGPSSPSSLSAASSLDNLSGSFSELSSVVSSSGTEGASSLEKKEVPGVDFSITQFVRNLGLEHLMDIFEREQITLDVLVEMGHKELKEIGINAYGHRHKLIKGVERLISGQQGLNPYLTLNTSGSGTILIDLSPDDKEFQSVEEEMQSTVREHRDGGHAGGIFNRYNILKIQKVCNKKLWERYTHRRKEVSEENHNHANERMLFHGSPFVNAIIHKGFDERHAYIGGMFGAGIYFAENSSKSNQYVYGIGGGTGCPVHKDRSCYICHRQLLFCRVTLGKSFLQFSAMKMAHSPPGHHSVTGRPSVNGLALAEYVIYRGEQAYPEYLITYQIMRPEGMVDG
Assay protocol: In vitro Scintillation Proximity Assay (SPA) for TANK-2 inhibitory activity
Assay type: biochemical
Condition details: read-out: in vitro SPA assay TANK-2 pIC50 (converted)
Measurement kind: IC50 (µM)
Give bare numbers, in µM.

Example results:
• Cc1cc2ccc(C(C)(C#N)CCCCOc3ccccc3)cc2[nH]c1=O (stereo not drawn) = 0.501
• CCc1cc2ccc(C(C)(C#N)Cc3cc(Cl)ccc3Cl)cc2[nH]c1=O (stereo not drawn) = 0.0794
• CCc1cc2ccc(C(C)(C#N)CN3CCN(c4ncc(Br)cn4)CC3)cc2[nH]c1=O (stereo not drawn) = 0.501

Look up IC50 for the entries below, preserving their order.
1. CCc1cc2ccc(C(C)(C#N)Cc3cccc(OCCCN4CCOCC4)c3)cc2[nH]c1=O (stereo not drawn)
2. CCc1cc2ccc(C(C)(C#N)CCOc3ccccc3Cl)cc2[nH]c1=O (stereo not drawn)
3. CCc1cc2ccc(C(C)(C#N)Cc3c(F)cccc3F)cc2[nH]c1=O (stereo not drawn)
4. CCc1cc2ccc(C(C#N)(CC)Cc3cccc(C#N)c3)cc2[nH]c1=O (stereo not drawn)
5. CCc1cc2ccc(C(F)(C#N)Cc3ccccc3)cc2[nH]c1=O (stereo not drawn)
6. Cc1cc2ccc(C(C)(C#N)C3CCCc4ccccc43)cc2[nH]c1=O (stereo not drawn)

0.0631
0.126
0.0631
0.1
0.316
2

Field: IC50. Fill in for each record below.
1. CCc1cc2ccc(C(C)(C#N)Cc3ccc(F)cc3Br)cc2[nH]c1=O (stereo not drawn)
2. CCc1cc2ccc(C(C)(C#N)Cc3cc(OC)nc(OC)n3)cc2[nH]c1=O (stereo not drawn)

1: 0.0794; 2: 0.1
